// provenance: the supplement of paper PMC9112550

system: Escherichia coli TOP10; assay: shrunken log2 fold change of peptide-encoding DNA abundance (4.5 h post-induction vs induction); higher = less antimicrobial activity (less host growth inhibition); details: time post-induction: 4.5 h; library: site-saturation at positions 5, 18, 19, 20
Decide using shrunken log2 fold change: a value greater than or equal to 0.2 is 1, a smaller one is -1.

- sequence text: "RRIRQRPPRLPRPRPRPVNKPRP"
  tested system: "Escherichia coli TOP10"
  label class: -1

# bool: shrunken log2 fold change of RRIRQRPPRLPRPRPRPETEPRP >= 0.2
-1

# bool: shrunken log2 fold change of RRIRYRPPRLPRPRPRPDQDPRP >= 0.2
-1

# bool: shrunken log2 fold change of RRIRWRPPRLPRPRPRPSCPPRP >= 0.2
-1

# bool: shrunken log2 fold change of RRIRRRPPRLPRPRPRPNARPRP >= 0.2
1

# bool: shrunken log2 fold change of RRIRERPPRLPRPRPRPTQDPRP >= 0.2
1

# bool: shrunken log2 fold change of RRIRTRPPRLPRPRPRPDMRPRP >= 0.2
-1

# bool: shrunken log2 fold change of RRIRKRPPRLPRPRPRPEDWPRP >= 0.2
1

# bool: shrunken log2 fold change of RRIRIRPPRLPRPRPRPEAEPRP >= 0.2
1

# bool: shrunken log2 fold change of RRIRTRPPRLPRPRPRPKYMPRP >= 0.2
-1

# bool: shrunken log2 fold change of RRIRYRPPRLPRPRPRPRNHPRP >= 0.2
-1

# bool: shrunken log2 fold change of RRIRHRPPRLPRPRPRPAYRPRP >= 0.2
-1

# bool: shrunken log2 fold change of RRIRYRPPRLPRPRPRPHYSPRP >= 0.2
-1

# bool: shrunken log2 fold change of RRIRERPPRLPRPRPRPKPQPRP >= 0.2
1

# bool: shrunken log2 fold change of RRIRMRPPRLPRPRPRPKCWPRP >= 0.2
1

====

system: Escherichia coli TOP10; test: shrunken log2 fold change of peptide-encoding DNA abundance (4.5 h post-induction vs induction); higher = less antimicrobial activity (less host growth inhibition); conditions: time post-induction: 4.5 h; library: site-saturation at positions 5, 18, 19, 20
metric name: shrunken log2 fold change
Numbers only.

- sequence text: "RRIRKRPPRLPRPRPRPNRIPRP"
  endpoint result: 0.0866
- sequence text: "RRIRLRPPRLPRPRPRPRKWPRP"
  endpoint result: 0.184
- sequence text: "RRIRLRPPRLPRPRPRPDWCPRP"
  endpoint result: 0.0707
- sequence text: "RRIRKRPPRLPRPRPRPCYNPRP"
  endpoint result: -0.428
- sequence text: "RRIRWRPPRLPRPRPRPEEEPRP"
  endpoint result: 0.00738

Please state shrunken log2 fold change for every sequence in the list that follows.
1. RRIRFRPPRLPRPRPRPKVKPRP
2. RRIRMRPPRLPRPRPRPQECPRP
3. RRIRLRPPRLPRPRPRPMKTPRP
4. RRIRLRPPRLPRPRPRPDARPRP
5. RRIRARPPRLPRPRPRPWWPPRP

1: 0.0668; 2: 0.313; 3: -0.034; 4: 0.0258; 5: 0.292

Please state shrunken log2 fold change for every sequence in the list that follows.
1. RRIRHRPPRLPRPRPRPKIIPRP
2. RRIRWRPPRLPRPRPRPYSCPRP
3. RRIRIRPPRLPRPRPRPWITPRP

[-1.08, -0.705, -0.917]

Please state shrunken log2 fold change for every sequence in the list that follows.
1. RRIRGRPPRLPRPRPRPRFIPRP
2. RRIRTRPPRLPRPRPRPPYYPRP

1. 0.123
2. -0.535

====

Please provide measured shrunken log2 fold change for the entries that follow.
tested on: Escherichia coli TOP10; experiment: shrunken log2 fold change of peptide-encoding DNA abundance (4.5 h post-induction vs induction); higher = less antimicrobial activity (less host growth inhibition); conditions: time post-induction: 4.5 h; library: site-saturation at positions 5, 18, 19, 20
Answers are plain numbers.

# annotated cases, reported shrunken log2 fold change shown
- sequence text: "RRIRHRPPRLPRPRPRPVITPRP"
  tested system: "Escherichia coli TOP10"
  metric name: "shrunken log2 fold change"
  endpoint result: 0.0477
- sequence text: "RRIRMRPPRLPRPRPRPLEMPRP"
  tested system: "Escherichia coli TOP10"
  metric name: "shrunken log2 fold change"
  endpoint result: 1.4
- sequence text: "RRIRMRPPRLPRPRPRPMMNPRP"
  tested system: "Escherichia coli TOP10"
  metric name: "shrunken log2 fold change"
  endpoint result: -0.0818
- sequence text: "RRIRKRPPRLPRPRPRPFAIPRP"
  tested system: "Escherichia coli TOP10"
  metric name: "shrunken log2 fold change"
  endpoint result: -0.00592
- sequence text: "RRIRIRPPRLPRPRPRPIWAPRP"
  tested system: "Escherichia coli TOP10"
  metric name: "shrunken log2 fold change"
  endpoint result: -0.234

Please state shrunken log2 fold change for every sequence in the list that follows.
1. RRIRWRPPRLPRPRPRPGIDPRP
2. RRIRVRPPRLPRPRPRPFIQPRP

1. 0.117
2. -0.449

Please state shrunken log2 fold change for every sequence in the list that follows.
1. RRIRLRPPRLPRPRPRPAKLPRP
2. RRIRRRPPRLPRPRPRPDRKPRP
3. RRIRPRPPRLPRPRPRPRQYPRP
4. RRIRARPPRLPRPRPRPGFSPRP

-0.0675
-0.145
-0.257
0.329

====

system: Escherichia coli TOP10; assay: shrunken log2 fold change of peptide-encoding DNA abundance (4.5 h post-induction vs induction); higher = less antimicrobial activity (less host growth inhibition); conditions: time post-induction: 4.5 h; library: site-saturation at positions 5, 18, 19, 20
Labels assigned by shrunken log2 fold change range: low end: < -0.1; middle: ≥ -0.1 and < 0.1; high end: ≥ 0.1

These recorded examples may help you get a feel for the data.
- sequence text: "RRIRERPPRLPRPRPRPAYPPRP"
  label class: "low end"
- sequence text: "RRIRARPPRLPRPRPRPADLPRP"
  label class: "high end"
- sequence text: "RRIRLRPPRLPRPRPRPVMNPRP"
  label class: "low end"
- sequence text: "RRIRPRPPRLPRPRPRPQHVPRP"
  label class: "middle"
- sequence text: "RRIRGRPPRLPRPRPRPLCAPRP"
  label class: "high end"

Tag the class for RRIRIRPPRLPRPRPRPASIPRP
low end

Tag the class for RRIRYRPPRLPRPRPRPIMVPRP
low end

Tag the class for RRIRLRPPRLPRPRPRPNVYPRP
low end

Tag the class for RRIRTRPPRLPRPRPRPAPSPRP
high end

Tag the class for RRIRERPPRLPRPRPRPPTMPRP
low end

Tag the class for RRIRNRPPRLPRPRPRPCADPRP
high end

Tag the class for RRIRSRPPRLPRPRPRPFEIPRP
middle

Tag the class for RRIRVRPPRLPRPRPRPRVIPRP
middle

Tag the class for RRIRFRPPRLPRPRPRPATYPRP
low end

====

test system: Escherichia coli TOP10; experiment: shrunken log2 fold change of peptide-encoding DNA abundance (4.5 h post-induction vs induction); higher = less antimicrobial activity (less host growth inhibition); conditions: time post-induction: 4.5 h; library: site-saturation at positions 5, 18, 19, 20
Please provide measured shrunken log2 fold change for the entries that follow.
One number for each entry.

# annotated cases, reported shrunken log2 fold change shown
- sequence text: "RRIRQRPPRLPRPRPRPCLKPRP"
  tested system: "Escherichia coli TOP10"
  endpoint result: -0.286
- sequence text: "RRIRERPPRLPRPRPRPDQGPRP"
  tested system: "Escherichia coli TOP10"
  endpoint result: 0.0476
- sequence text: "RRIRYRPPRLPRPRPRPYFVPRP"
  tested system: "Escherichia coli TOP10"
  endpoint result: -0.858

Please state shrunken log2 fold change for every sequence in the list that follows.
1. RRIRARPPRLPRPRPRPASNPRP
2. RRIRWRPPRLPRPRPRPATMPRP
3. RRIRHRPPRLPRPRPRPENIPRP
4. RRIRGRPPRLPRPRPRPGDRPRP

[0.5, 0.0187, -0.0173, 1]

If you can, please state the reported shrunken log2 fold change value of RRIRPRPPRLPRPRPRPAIQPRP .
-0.00944

====

test system: Escherichia coli TOP10; test: shrunken log2 fold change of peptide-encoding DNA abundance (4.5 h post-induction vs induction); higher = less antimicrobial activity (less host growth inhibition); conditions: time post-induction: 4.5 h; library: site-saturation at positions 5, 18, 19, 20;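 further: peptides expressed intracellularly from a pBAD plasmid library in pooled LB shake-flask culture, induced with 0.3% L-arabinose, DNA abundance read by NGS, three biological replicates, DESeq2 with apeglm shrinkage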
metric name: shrunken log2 fold change

- sequence text: "RRIRQRPPRLPRPRPRPHWHPRP"
  shrunken log2 fold change: -0.465

Please state shrunken log2 fold change for every sequence in the list that follows.
1. RRIRVRPPRLPRPRPRPTYYPRP
2. RRIRQRPPRLPRPRPRPTVVPRP
3. RRIRHRPPRLPRPRPRPPKFPRP

1. -0.315
2. -0.00822
3. -0.223

Please state shrunken log2 fold change for every sequence in the list that follows.
1. RRIRARPPRLPRPRPRPNRSPRP
2. RRIRCRPPRLPRPRPRPNDQPRP
3. RRIRIRPPRLPRPRPRPTHTPRP
4. RRIRMRPPRLPRPRPRPKLIPRP
5. RRIRLRPPRLPRPRPRPCKTPRP
6. RRIRKRPPRLPRPRPRPYSHPRP
7. RRIRNRPPRLPRPRPRPVVGPRP

1: -0.229; 2: 0.0359; 3: -0.448; 4: -0.0987; 5: 0.0231; 6: -0.134; 7: 0.392

Please state shrunken log2 fold change for every sequence in the list that follows.
1. RRIRHRPPRLPRPRPRPAPSPRP
2. RRIRMRPPRLPRPRPRPSDEPRP
3. RRIRVRPPRLPRPRPRPMLEPRP
4. RRIRFRPPRLPRPRPRPVQAPRP
5. RRIRHRPPRLPRPRPRPLCQPRP
6. RRIRPRPPRLPRPRPRPPHTPRP
7. RRIRWRPPRLPRPRPRPAVTPRP
8. RRIRCRPPRLPRPRPRPYPHPRP

[0.709, 0.958, 0.0706, 0.183, -0.316, 0.398, 0.599, -0.438]

Please state shrunken log2 fold change for every sequence in the list that follows.
1. RRIRQRPPRLPRPRPRPHSSPRP
2. RRIRVRPPRLPRPRPRPNNEPRP
3. RRIRQRPPRLPRPRPRPGWGPRP
4. RRIRTRPPRLPRPRPRPMLDPRP
5. RRIRLRPPRLPRPRPRPDAQPRP
6. RRIRFRPPRLPRPRPRPWCMPRP
7. RRIRGRPPRLPRPRPRPHKEPRP
8. RRIRRRPPRLPRPRPRPWIHPRP

1. -0.271
2. -0.301
3. 0.957
4. -0.0137
5. 0.34
6. -0.214
7. -0.0695
8. -0.147
